- target: Peptide deformylase (Escherichia coli, UniProt Q9JN24)
- Sequence (Q9JN24 whole entry): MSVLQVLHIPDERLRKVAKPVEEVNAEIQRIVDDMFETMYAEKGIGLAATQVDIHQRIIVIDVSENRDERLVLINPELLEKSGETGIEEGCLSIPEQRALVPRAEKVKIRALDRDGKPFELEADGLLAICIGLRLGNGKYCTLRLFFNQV
outcome_measure: pIC50
Scale explanation: pIC50 corresponds to minus log10 of a concentration expressed in moles per litre.

Below, 4 compounds whose answers are already recorded.
CC(C)(C)[C@H](NC(=O)[C@H](CC1CCCC1)CN(O)C=O)C(=O)c1ccc(N2CCN(CCN3CCOCC3)CC2)cc1 | 8.70
CCCC[C@H](CN(O)C=O)C(=O)N[C@H](C(=O)c1cc2ccccc2o1)C(C)(C)C | 8.40
CCCC[C@H](CN(O)C=O)C(=O)N[C@H](C(=O)c1ccc(N)cc1)C(C)(C)C | 8.10
CC(C)(C)[C@H](NC(=O)[C@H](CC1CCCC1)CN(O)C=O)C(=O)c1ccc(N2CCN(CCN3CCCC3)CC2)c(F)c1 | 8.05

Input line: I'd like to know its pIC50. The compound in question is CC(C)(C)[C@H](NC(=O)[C@H](CC1CCCC1)CN(O)C=O)C(=O)c1ccc(N2CCC[C@H]2CO)cc1
Output line: 8.15

Input line: For CCCC[C@H](CN(O)C=O)C(=O)N[C@H](C(=O)c1ccc(O)cc1)C(C)(C)C , what is its reported pIC50?
Output line: 8.10

Input line: Field request: pIC50 | item: CC(C)(C)[C@H](NC(=O)[C@H](CC1CCCC1)CN(O)C=O)C(=O)c1ccc(N2CCC(O)CC2)cc1
Output line: 8.70

====

- target: Peptide deformylase (Escherichia coli, UniProt Q9JN24)
- protocol_summary: Inhibitory activity against Escherichia coli peptide deformylase (PDF) Nickel containing enzyme
outcome_measure: IC50 (nM)
// note: answer is a bare numeric in nM

CCCC[C@H](CN(O)C=O)C(=O)N[C@H](C(=O)c1ccc(NC(=O)C(F)(F)F)cc1)C(C)(C)C | 20
CCCC[C@H](CN(O)C=O)C(=O)N[C@H](C(=O)c1ccc(C#N)cc1)C(C)(C)C | 7
CCCC[C@H](CN(O)C=O)C(=O)N[C@H](C(=O)c1ccc(NC(C)=O)cc1)C(C)(C)C | 8

Input line: Given the entry CC(C)(C)[C@H](NC(=O)[C@H](CC1CCCC1)CN(O)C=O)C(=O)c1ccc(N2CCC(O)CC2)c(F)c1 , what IC50 was observed with Peptide deformylase (Escherichia coli, UniProt Q9JN24)?
Output line: 2

Input line: Kindly state the measured IC50 obtained for CC(C)(C)[C@H](NC(=O)[C@H](CC1CCCC1)CN(O)C=O)C(=O)c1cc(F)c(F)cc1N1CCN(CCN2CCOCC2)CC1 with Peptide deformylase (Escherichia coli, UniProt Q9JN24).
Output line: 2

Input line: Please tell me: IC50 of CC(C)(C)[C@H](NC(=O)[C@H](CC1CCCC1)CN(O)C=O)C(=O)c1cc(F)c(F)cc1N1CCN(CCN2CCCC2)CC1 , system Peptide deformylase (Escherichia coli, UniProt Q9JN24)?
Output line: 2

====

- target: Peptide deformylase (Escherichia coli, UniProt Q9JN24)
- protocol_summary: Inhibitory activity against Escherichia coli peptide deformylase (PDF) Nickel containing enzyme
outcome_measure: pIC50
API: returns pIC50 as number; meaning -log10 of concentration in mol/L.

CC(C)(C)[C@H](NC(=O)[C@H](CC1CCCC1)CN(O)C=O)C(=O)c1ccc(O)cc1 | 8.70

Input line: Which pIC50 is listed for CC(C)(C)[C@H](NC(=O)[C@H](CC1CCCC1)CN(O)C=O)C(=O)c1ccc(N2CCN(CCO)CC2)cc1 ?
Output line: 8.70

Input line: Sample CCCC[C@H](CN(O)C=O)C(=O)N[C@H](C(=O)c1ccc(OC)cc1)C(C)(C)C — what was its pIC50?
Output line: 9.00

Input line: # get_value(readout='pIC50', item= CC(C)(C)[C@H](NC(=O)[C@H](CC1CCCC1)CN(O)C=O)C(=O)c1cc(F)c(F)cc1N1CCC(O)CC1 )
Output line: 9.00

Input line: Requested read-out: pIC50. Entry: CCCC[C@H](CN(O)C=O)C(=O)N[C@H](C(=O)c1ccc(N2CCOCC2)cc1)C(C)(C)C
Output line: 8.30

Input line: Data request, read-out pIC50, for CCCC[C@H](CN(O)C=O)C(=O)N[C@H](C(=O)c1ccc(NS(C)(=O)=O)cc1)C(C)(C)C
Output line: 8.40

Input line: pIC50 lookup needed for COc1ccc(C(=O)[C@@H](NC(=O)[C@H](CC2CCCC2)CN(O)C=O)C(C)(C)C)cc1 , thanks.
Output line: 8.52

Input line: Looking for the measured pIC50 of CCCC[C@H](CN(O)C=O)C(=O)N[C@H](C(=O)c1ccccn1)C(C)(C)C , can you help?
Output line: 8.52

Input line: What value of pIC50 has been reported for the following molecule? CCCC[C@H](CN(O)C=O)C(=O)N[C@H](C(=O)c1ccc(F)cc1)C(C)(C)C
Output line: 8.52

Input line: Which measured pIC50 value corresponds to CC(C)(C)[C@H](NC(=O)[C@H](CC1CCCC1)CN(O)C=O)C(=O)c1ccc(N2CCN(CCN3CCCC3)CC2)cc1 ?
Output line: 8.52

Input line: Sample CC(C)(C)[C@H](NC(=O)[C@H](CC1CCCC1)CN(O)C=O)C(=O)c1cc2ccccc2o1 — what was its pIC50?
Output line: 8.40
